# HCoV-229E 3CLpro (Human coronavirus 229E, UniProt P0C6X1): log10 of IC50 values follow
# Sequence (P0C6X1 2966-3267): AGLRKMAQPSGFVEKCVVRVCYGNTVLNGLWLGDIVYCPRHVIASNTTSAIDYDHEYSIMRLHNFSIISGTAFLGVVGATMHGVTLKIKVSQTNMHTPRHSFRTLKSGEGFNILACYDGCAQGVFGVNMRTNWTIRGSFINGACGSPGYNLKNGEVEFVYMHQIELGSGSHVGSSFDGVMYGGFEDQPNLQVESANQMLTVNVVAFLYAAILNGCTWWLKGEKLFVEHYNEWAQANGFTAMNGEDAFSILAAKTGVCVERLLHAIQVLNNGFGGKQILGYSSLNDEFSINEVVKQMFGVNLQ
Please interpret these as log10 of IC50 where IC50 is in nM.

COMPOUND	log10 of IC50
CC(C)(C)[C@H](NC(=O)C1CC1)C(=O)N1C[C@H]2[C@@H]([C@H]1C(=O)NN(C[C@@H]1CCNC1=O)C(=O)[C@H](F)Cl)C2(C)C [Example 12]	1.41

Provide log10 of IC50 values for the following items, in order.
1. CC[C@H](C)[C@H](NC(=O)C(C)F)C(=O)N1C[C@@H]2CCC[C@@H]2[C@H]1C(=O)NN(C[C@@H]1CCNC1=O)C(=O)[C@H](F)Cl (mixture of isomers) [Example 43]
2. CCC(C)(C)[C@H](NC(=O)[C@@H]1CC1(F)F)C(=O)N1C[C@@H]2CCC[C@@H]2[C@H]1C(=O)NN(C[C@@H]1CCNC1=O)C(=O)[C@H](F)Cl [Example 150]
3. CCC(CC)[C@H](NC(=O)C(F)F)C(=O)N1C[C@@H]2CCC[C@@H]2[C@H]1C(=O)NN(C[C@@H]1CCNC1=O)C(=O)[C@H](F)Cl [Example 136]
4. C[C@@H]1C[C@@H](C(=O)NN(C[C@@H]2CCNC2=O)C(=O)[C@H](F)Cl)N(C(=O)[C@@H](NC(=O)C(F)(F)F)C(C)(C)C)C1 [Example 7]
5. CC(C)(C)[C@H](NC(=O)[C@@H]1CC1(F)F)C(=O)N1C[C@H](C(F)(F)F)C[C@H]1C(=O)NN(C[C@@H]1CCNC1=O)C(=O)[C@H](F)Cl [Example 158]
6. CC[C@H](C)[C@H](NC(=O)[C@H](F)Cl)C(=O)N1C[C@@H]2CCC[C@@H]2[C@H]1C(=O)NN(C[C@@H]1CCCNC1=O)C(=O)[C@H](F)Cl [Example 190]
7. CC[C@@H](C)[C@H](NC(=O)C1(F)CC1)C(=O)N1C[C@H]2[C@@H]([C@H]1C(=O)NN(C[C@@H]1CCNC1=O)C(=O)[C@@H](F)Cl)C2(C)C [Example 121]
8. CC[C@H](C)[C@H](NC(=O)C(F)(F)F)C(=O)N1C[C@H]2[C@@H]([C@H]1C(=O)NN(C[C@@H]1CCNC1=O)C(=O)[C@@H](F)Cl)C2(C)C [Example 107]

[1.34, 1.52, 1.74, 2.29, 1.53, 1.46, 1.63, 1.60]

Kindly indicate its recorded log10 of IC50. Item: CC[C@H](C)[C@H](NC(=O)C(F)(F)C(F)(F)F)C(=O)N1C[C@H]2[C@@H]([C@H]1C(=O)NN(C[C@@H]1CCNC1=O)C(=O)[C@H](F)Cl)C2(C)C [Example 62] 1.23

----------
molecular target: HCoV-229E 3CLpro (Human coronavirus 229E)
Would you mind telling me the reported IC50 of each entry?
One number for each entry, in µM.

Worked set:
MOLECULE	TARGET_OF_ASSAY	IC50 [µM]
CC[C@H](C)[C@H](NC(=O)C1CC1(F)F)C(=O)N1C[C@H]2[C@@H]([C@H]1C(=O)NN(C[C@@H]1CCNC1=O)C(=O)[C@H](F)Cl)C2(C)C (mixture of isomers) [Example 53]	HCoV-229E 3CLpro (Human coronavirus 229E)	0.032
CC[C@H](C)[C@H](NC(=O)[C@@H](F)Cl)C(=O)N1C[C@@H]2CCC[C@@H]2[C@H]1C(=O)NN(C[C@@H]1CCCNC1=O)C(=O)[C@@H](F)Cl [Example 191]	HCoV-229E 3CLpro (Human coronavirus 229E)	0.027
CC(C)(C)C[C@H](NC(=O)C1(F)CC1)C(=O)N1C[C@H]2[C@@H]([C@H]1C(=O)NN(C[C@@H]1CCNC1=O)C(=O)[C@H](F)Cl)C2(C)C [Example 162]	HCoV-229E 3CLpro (Human coronavirus 229E)	0.033
CC[C@H](C)[C@H](NC(=O)C1(F)CCC1)C(=O)N1C[C@H]2[C@@H]([C@H]1C(=O)NN(C[C@@H]1CCNC1=O)C(=O)[C@H](F)Cl)C2(C)C [Example 105]	HCoV-229E 3CLpro (Human coronavirus 229E)	0.027

Kindly indicate its recorded IC50. Item: CC[C@H](C)[C@H](NC(=O)C1(C)CC1)C(=O)N1C[C@H]2[C@@H]([C@H]1C(=O)NN(C[C@@H]1CCNC1=O)C(=O)[C@H](F)Cl)C2(C)C [Example 60] 0.019

----------
biological target: UniProt P0DTD1; experiment: biochemical
Would you mind telling me the reported pIC50 of each entry?
Answers are plain numbers, as −log10 of the molar value.

Provide pIC50 values for the following items, in order.
1. CC[C@@H](C)[C@H](NC(=O)C1CC(F)(F)C1)C(=O)N1C[C@@H]2CCC[C@@H]2[C@H]1C(=O)NN(C[C@@H]1CCNC1=O)C(=O)[C@H](F)Cl
2. CC[C@H](C)[C@H](NC(=O)[C@H](F)Cl)C(=O)N1C[C@H]2[C@@H]([C@H]1C(=O)NN(C[C@@H]1CCNC1=O)C(=O)[C@H](F)Cl)C2(C)C
3. CC(=O)N[C@H](C(=O)N1C[C@@H]2CCC[C@@H]2[C@H]1C(=O)NN(C[C@@H]1CCNC1=O)C(=O)[C@H](F)Cl)C(C)(C)C
4. CC[C@@H](C)[C@H](NC(=O)C1CC(F)(F)C1)C(=O)N1C[C@H]2[C@@H]([C@H]1C(=O)NN(C[C@@H]1CCNC1=O)C(=O)[C@H](F)Cl)C2(C)C
5. CC[C@H](C)[C@H](NC(=O)c1ccccc1)C(=O)N1C[C@@H]2CCC[C@@H]2[C@H]1C(=O)NN(C[C@@H]1CCNC1=O)C(=O)[C@H](F)Cl

7.96
7.96
8.00
7.77
8.00

----------
biological target: SARS-CoV 3CLpro (Severe acute respiratory syndrome coronavirus)
Would you mind telling me the reported pIC50 of each entry?
Numbers only, as −log10 of the molar value.

Worked set:
> print(dat)
                      smiles.representation                           target.of.assay  experimental.value
1  CC[C@H](C)[C@H](NC(=O)C(Cl)Cl)C(=O)N1C[C@@H]2CCC[C@@H]2[C@H]1C(=O)NN(C[C@@H]1CCNC1=O)C(=O)[C@H](F)Cl  SARS-CoV 3CLpro (Severe acute respiratory syndrome coronavirus)                7.89
2  C[C@H](NC(=O)C(F)(F)F)C(=O)N1C[C@@H]2CCC[C@@H]2[C@H]1C(=O)NN(C[C@@H]1CCNC1=O)C(=O)[C@H](F)Cl  SARS-CoV 3CLpro (Severe acute respiratory syndrome coronavirus)                7.92
3  CC(=O)N[C@H](C(=O)N1C[C@@H]2CCC[C@@H]2[C@H]1C(=O)NN(C[C@@H]1CCNC1=O)C(=O)[C@H](F)Cl)C(C)(C)C  SARS-CoV 3CLpro (Severe acute respiratory syndrome coronavirus)                7.96

Provide pIC50 values for the following items, in order.
1. CCC(C)(C)[C@H](NC(=O)[C@@H](C)F)C(=O)N1C[C@H]2[C@@H]([C@H]1C(=O)NN(C[C@@H]1CCNC1=O)C(=O)[C@H](F)Cl)C2(C)C
2. CC(C)(C)[C@H](NC(=O)[C@@H]1CC1(F)F)C(=O)N1C[C@H]2[C@@H]([C@H]1C(=O)NN(C[C@@H]1CCNC1=O)C(=O)[C@@H](F)Cl)C2(C)C

1. 7.82
2. 7.85

----------
# HCoV-229E 3CLpro (Human coronavirus 229E): pIC50 values follow
Give bare numbers, as −log10 of the molar value.

Provide pIC50 values for the following items, in order.
1. CCCC(=O)N[C@H](C(=O)N1C[C@@H]2CCC[C@@H]2[C@H]1C(=O)NN(C[C@@H]1CCNC1=O)C(=O)[C@H](F)Cl)[C@@H](C)CC
2. CC1(C)[C@@H]2[C@@H](C(=O)NN(C[C@@H]3CCNC3=O)C(=O)[C@H](F)Cl)N(C(=O)/C=C/c3cc(F)cc(F)c3)C[C@@H]21
3. CC(C)(C)[C@H](NC(=O)C(F)(F)F)C(=O)N1C[C@H]2[C@@H]([C@H]1C(=O)NN(C[C@@H]1CCNC1=O)C(=O)[C@H](F)Cl)C2(C)C
4. CC[C@H](C)[C@H](NC(=O)C(Cl)Cl)C(=O)N1C[C@@H]2CCC[C@@H]2[C@H]1C(=O)NN(C[C@@H]1CCNC1=O)C(=O)[C@H](F)Cl

1. 7.31
2. 7.32
3. 7.46
4. 7.48

Kindly indicate its recorded pIC50. Item: CCC(CC)[C@H](NC(=O)C1CC(F)(F)C1)C(=O)N1C[C@@H]2CCC[C@@H]2[C@H]1C(=O)NN(C[C@@H]1CCNC1=O)C(=O)[C@H](F)Cl 7.44
